assay_system: PDE10A (Homo sapiens (Human), UniProt Q9Y233)
Sequence (Q9Y233 whole entry, species assumed): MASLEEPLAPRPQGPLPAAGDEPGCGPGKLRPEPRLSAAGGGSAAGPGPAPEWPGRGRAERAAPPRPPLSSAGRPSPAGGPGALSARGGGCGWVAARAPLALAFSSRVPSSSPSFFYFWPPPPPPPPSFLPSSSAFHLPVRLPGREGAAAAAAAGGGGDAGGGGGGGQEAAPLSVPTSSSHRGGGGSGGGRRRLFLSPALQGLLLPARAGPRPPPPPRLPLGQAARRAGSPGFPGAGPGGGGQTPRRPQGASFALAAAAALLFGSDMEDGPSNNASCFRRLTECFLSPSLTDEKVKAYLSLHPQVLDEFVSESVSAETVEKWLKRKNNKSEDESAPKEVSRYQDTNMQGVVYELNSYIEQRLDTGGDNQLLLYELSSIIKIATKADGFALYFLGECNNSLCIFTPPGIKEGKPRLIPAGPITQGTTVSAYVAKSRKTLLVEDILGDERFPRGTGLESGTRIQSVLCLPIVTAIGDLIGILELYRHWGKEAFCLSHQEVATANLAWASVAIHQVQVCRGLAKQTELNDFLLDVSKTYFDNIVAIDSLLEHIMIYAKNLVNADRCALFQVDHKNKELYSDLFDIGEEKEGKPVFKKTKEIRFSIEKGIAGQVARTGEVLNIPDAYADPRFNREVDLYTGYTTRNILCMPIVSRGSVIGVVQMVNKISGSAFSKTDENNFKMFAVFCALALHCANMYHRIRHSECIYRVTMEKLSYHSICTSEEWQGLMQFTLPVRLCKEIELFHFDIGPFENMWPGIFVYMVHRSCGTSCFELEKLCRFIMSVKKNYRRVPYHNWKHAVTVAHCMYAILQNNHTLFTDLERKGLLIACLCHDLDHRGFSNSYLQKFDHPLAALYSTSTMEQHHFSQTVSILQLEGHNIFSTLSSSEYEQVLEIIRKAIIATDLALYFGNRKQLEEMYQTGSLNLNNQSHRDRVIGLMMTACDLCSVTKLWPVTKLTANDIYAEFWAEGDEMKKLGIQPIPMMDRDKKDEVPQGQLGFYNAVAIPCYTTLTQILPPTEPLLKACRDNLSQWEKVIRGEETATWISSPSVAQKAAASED
experiment: Measurement of PDE activity (HTRF cAMP kit, recombinant PDE)
particulars: recombinant PDE10, 20 nM cyclic nucleotide substrate, 60 minutes at 29 C
pIC50: −log10 of the molar value.
quantity_name: pIC50

>>> print(df.to_string())
                                   compound  value_reported
0  Cc1cccc(C#Cc2ccc(-c3c(-c4ccncc4)cnn3C)cc2)n1          > 7.00
1  Cc1ccnc(C#Cc2ccc(-c3nn(C)cc3-c3ccncc3)cc2)c1          > 7.00
2  Cc1cccc(C#Cc2ccc(-c3nn(C)cc3-c3cn[nH]c3)cc2)n1    6.30 to 6.70
3  Cc1cccc(C#Cc2ccc(-c3nn(C)cc3-c3ccnn3C)cc2)n1.Cl [Example 27, hydrochloride]    6.70 to 7.00
4  Cc1cccc(C#Cc2ccc(-c3nn(C)cc3-c3cccnc3)cc2)n1.O=C(O)C(F)(F)F    6.30 to 6.70

Query string: // query pIC50 value for entry "Cn1cc(-c2ccncc2)c(-c2ccc(C#Cc3ccc4cc[nH]c4n3)cc2)n1"
Result string: > 7.00

Query string: Form field: reported pIC50 of "Cc1ccc(C#Cc2ccc(-c3nn(C)cc3-c3ccncc3)cc2)nc1"
Result string: > 7.00

Query string: Please give the measured pIC50 for this compound: "Cc1cccc(C#Cc2ccc(-c3nn(C)cc3-c3ccncc3)cc2)n1"
Result string: > 7.00

Query string: Value lookup for pIC50; key = "COc1cccnc1C#Cc1ccc(-c2nn(C)cc2-c2ccncc2)cc1"
Result string: > 7.00

Query string: Find the recorded pIC50 belonging to "Cn1cc(-c2ccncc2)c(-c2ccc(C#Cc3nccn3C)cc2)n1" and report it.
Result string: > 7.00

Query string: Name the reported pIC50 value associated with the compound "Cc1cc(C#Cc2ccc(-c3nn(C)cc3-c3ccncc3)cc2)nc2ccccc12"
Result string: > 7.00

Query string: Recorded pIC50 for "Cc1cccc(C#Cc2ccc(-c3nn(C)cc3-c3ccnnc3)cc2)n1" , please?
Result string: > 7.00

Query string: Endpoint output: pIC50 of "Cn1cc(-c2ccncc2)c(-c2ccc(C#Cc3ccc4ccccc4n3)cc2)n1" . Value?
Result string: > 7.00

Query string: Which value of pIC50 has been reported for "COc1cccc(C#Cc2ccc(-c3nn(C)cc3-c3ccncc3)cc2)n1.O=C(O)C(F)(F)F" in the records?
Result string: > 7.00

Query string: Endpoint output: pIC50 of "Cn1cc(-c2ccncc2)c(-c2ccc(C#Cc3ccc(F)cn3)cc2)n1" . Value?
Result string: > 7.00

###

Entries and their measured pIC50 follow.
assay_system: UniProtKB Q9Y233
experiment: Measurement of PDE activity (HTRF cAMP kit, recombinant PDE)
particulars: recombinant PDE10, 20 nM cyclic nucleotide substrate, 60 minutes at 29 C
pIC50: −log10 of the molar value.

Here is how some compounds turned out for pIC50.
                           molecular_string  value_reported
0  Cc1cccc(C#Cc2ccc(-c3nn(C)cc3-c3cncnc3)cc2)n1    6.70 to 7.00
1  Cn1cc(-c2ccncc2)c(-c2ccc(C#Cc3ccc4ncccc4n3)cc2)n1          > 7.00
2  COc1cc(-c2nn(C)cc2-c2ccncc2)ccc1C#Cc1cccc(C)n1.O=C(O)C(F)(F)F          > 7.00

Query string: Any idea what its pIC50 is? The compound is "COc1ccc(-c2cn(C)nc2-c2ccc(C#Cc3cccc(C)n3)cc2)cc1"
Result string: 6.70 to 7.00

Query string: Item under review: "Cc1cccc(C#Cc2ccc(-c3c(-c4ccncc4)nc4n3CCC4)cc2)n1" . Reported pIC50?
Result string: 6.70 to 7.00

Query string: Data request, read-out pIC50, for "Cn1cc(-c2ccncc2)c(-c2ccc(C#Cc3ccccn3)cc2)n1"
Result string: > 7.00

Query string: Given the entry "Cn1cc(-c2ccncc2)c(-c2ccc(C#Cc3cn4ccccc4n3)cc2)n1" , report its measured pIC50.
Result string: > 7.00
